Overview of reported melting point across a group of compounds:

Here's what some known entries look like.
[
  {
    "compound": "CCOC(=O)N1CCN(C(=S)Cl)CC1",
    "melting point": "107 to 111 °C"
  },
  {
    "compound": "C[C@H]1CCCC(C)(C)[C@@H]1[C@@H](O)c1cccc(Cl)c1",
    "melting point": "58 to 60 °C"
  },
  {
    "compound": "COc1ccc(CNC(=O)c2cc3c(=O)n(CCOc4ccc(Br)cc4)c(=O)n(C)c3s2)cc1",
    "melting point": "184 to 185 °C"
  },
  {
    "compound": "Cn1cc(-c2cccc(F)c2)c(=O)c(-c2cccc(Cl)c2)c1",
    "melting point": "145 to 146 °C"
  },
  {
    "compound": "Cc1nc2cc(Cl)ccc2c(=O)n1C1CCC(=O)NC1=O (centres undefined)",
    "melting point": "291 to 293 °C"
  }
]

Kindly note the recorded melting point for CC1=C(C(=O)OCCC#N)C(c2c(F)cccc2Cl)C(C(=O)OC2CCCC2)=C(C)N1 (centres undefined) , which is 135 to 136 °C

The compound listed as CCc1ccc2c(=O)c(-c3nnn[nH]3)cn(C)c2c1 has a reported melting point of 180 to 181 °C

Lab book: melting point of Clc1cc2ccccc2c(N2CCSCC2)n1 noted as 133 °C

For COc1ccc(-c2nc3ccc(-n4cncn4)cc3[nH]2)cc1OC(C)C the compound record lists melting point as 118 to 126 °C
